- Tested on: Pseudomonas aeruginosa
- assay-summary: Antimicrobial activity against Pseudomonas aeruginosa secretion isolate 4703 containing PFGE clone A1 expressing beta-lactamase IMP-15 by broth microdilution method
- Assay type: functional
measurement-type: MIC (µg/mL)
Give bare numbers, in µg/mL.

# annotated cases, reported MIC shown
| item-smiles | reported-result |
| --- | --- |
| C[C@@H](O)[C@H]1C(=O)N2C(C(=O)O)=C(S[C@@H]3CN[C@H](C(=O)N(C)C)C3)[C@H](C)[C@H]12 | 128 |
| NCC[C@H](O)C(=O)N[C@@H]1C[C@H](N)[C@@H](O[C@H]2O[C@H](CN)[C@@H](O)[C@H](O)[C@H]2O)[C@H](O)[C@H]1O[C@H]1O[C@H](CO)[C@@H](O)[C@H](N)[C@H]1O | 128 |

Here CCN1CCN(C(=O)N[C@@H](C(=O)N[C@@H]2C(=O)N3[C@@H]2SC(C)(C)[C@@H]3C(=O)O)c2ccccc2)C(=O)C1=O was tested on Pseudomonas aeruginosa, and its MIC came to 64
